Listing: melting point of selected molecules

Sample records with melting point:
O=C(Cc1cc(C(=O)c2ccc(I)c([N+](=O)[O-])c2)sc1-c1ccccc1)NO 147 to 151 °C
NNC(=O)Cc1cc(C(=O)c2ccc(Br)cc2)sc1-c1ccccc1 157 to 161 °C
NNC(=O)Cc1cc(C(=O)c2ccc(I)c(N)c2)sc1-c1ccccc1 159 to 165 °C

Next, consider the following molecule.
[Q] Tell me the measured melting point of Nc1cc(C(=O)c2cc(CC(=O)NO)c(-c3ccccc3)s2)ccc1I , please.
[A] > 170 °C (dec.)

###

Listing: inhibition at 100 µM of selected compounds
Biological target: endopeptidase (LC) of botulinum neurotoxin serotype A (BoNTA) (Clostridium botulinum)
Sequence (P0DPI0 2-448 limits assumed): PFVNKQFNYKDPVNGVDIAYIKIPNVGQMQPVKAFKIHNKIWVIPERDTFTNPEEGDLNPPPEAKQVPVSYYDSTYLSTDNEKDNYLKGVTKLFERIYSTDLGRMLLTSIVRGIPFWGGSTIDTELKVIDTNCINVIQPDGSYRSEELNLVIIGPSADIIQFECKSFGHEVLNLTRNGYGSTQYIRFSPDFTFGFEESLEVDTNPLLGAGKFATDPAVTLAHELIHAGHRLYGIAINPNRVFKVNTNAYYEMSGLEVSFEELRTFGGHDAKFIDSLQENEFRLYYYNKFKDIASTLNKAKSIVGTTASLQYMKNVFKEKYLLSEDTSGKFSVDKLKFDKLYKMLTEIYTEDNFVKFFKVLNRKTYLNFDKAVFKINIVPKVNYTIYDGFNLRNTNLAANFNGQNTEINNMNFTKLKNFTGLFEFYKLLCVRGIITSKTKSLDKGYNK
Assay: biochemical
Details: read-out: % Inhibition at 100 μM, BoNTA LC
Write down the numeric answer in % and omit the unit.

Sample records with inhibition at 100 µM:
Compound	inhibition at 100 µM / %
Cl.NCCCCn1c(-c2ccccc2)cc2ccc(C(=O)c3cc(CC(=O)NO)c(-c4ccccc4)s3)cc21 [Compound 12, hydrochloride]	96
O=C(Cc1cc(C(=O)c2ccc(Cl)cc2)sc1-c1ccccc1)NO	30
Nc1cc(C(=O)c2cc(CC(=O)NO)c(-c3ccccc3)s2)ccc1I	40

Next, consider the following compound.
[Q] Tell me the measured inhibition at 100 µM of O=C(O)Cc1cc(C(=O)c2ccc(Cl)cc2)sc1-c1ccccc1 , please.
[A] 15
